- assay.target: UniProt:P0DTD1
- assay.method.text: biochemical
- test.parameters: calculated IC50
pIC50: −log10 of the molar value.

molecule	pIC50
COc1cc(CNC(=O)C2CCN(C(C)c3cc(Cl)ccc3OC)CC2)ccn1 (stereo not shown)	5.34
CNC(=O)C1CCN([C@H](C)c2cccc3ccccc23)CC1	5.51
COc1cc(CNCC2CCN([C@H](C)c3cccc4ccccc34)CC2)ccn1.O=CO	5.24
CCOc1ccc(Cl)cc1C(C)N1CCC(C(=O)NCc2ccnc(OC)c2)CC1 (stereo not shown)	5.10
Cc1ncc(CNC(=O)C2CCN([C@H](C)c3cccc4ccccc34)CC2)s1	6.15
COc1cc(CNC(=O)C2CCN(C(C)c3cccc(-c4ccccc4)c3)CC2)ccn1 (stereo not shown)	4.74
C[C@H](c1cccc2ccccc12)N1CCC(C(=O)NCc2ccn(C)c(=O)c2)CC1	6.16
C[C@H](c1cccc2ccccc12)N1CCC(C(=O)NCc2cccnc2)CC1	6.09
COc1cc(CNC(=O)C2CCN(C(C)c3csc4ccccc34)CC2)ccn1 (stereo not shown)	5.35
COc1cc(CNC(=O)C2CCN(C(C)c3ccc(F)c4ccccc34)CC2)ccn1 (stereo not shown)	5.66

* * *

- assay.method.text: physchem
- test.parameters: pH 6.5, aqueous buffer, kinetic from dmso stock
Measured solubility kinetic of individual entries
readout.kind: solubility kinetic

compound	test.result
COc1cc(CNC(=O)C2CCN([C@H](C)c3cccc4ccccc34)CC2)ccn1 [Compound 5c]	50 to 100 µg/mL
COc1cc(CNC(=O)C2CCN(C(C)c3ccc(OC)c4ccccc34)CC2)ccn1 (stereo not drawn) [Compound 9]	70 to 140 µg/mL
C[C@H](c1cccc2ccccc12)N1CCC(C(=O)NCc2cccc(F)c2)CC1 [Compound 3k]	12.5 to 25 µg/mL

* * *

Measured Kd of individual entries
- assay.target: SARS-CoV PLpro (Severe acute respiratory syndrome coronavirus)
- assay.method.text: biochemical
- Type: binding
- test.parameters: KD Exp2, SARS-CoV

compound	assay.target	Kd / nM
COc1cc(CNC(=O)C2CCN([C@H](C)c3cccc4ccccc34)CC2)ccn1	SARS-CoV PLpro (Severe acute respiratory syndrome coronavirus)	880
COc1cc(CNC(=O)C2CCN(C(C)c3ccc(OC)c4ccccc34)CC2)ccn1 (stereo not drawn)	SARS-CoV PLpro (Severe acute respiratory syndrome coronavirus)	800
C[C@H](c1cccc2ccccc12)N1CCC(C(=O)NCc2cccc(F)c2)CC1	SARS-CoV PLpro (Severe acute respiratory syndrome coronavirus)	795

* * *

- assay.target: SARS-CoV-2 PLpro (Severe acute respiratory syndrome coronavirus 2, UniProt P0DTD1)
- assay.method.text: biochemical
- test.parameters: calculated IC50
pIC50: −log10 of the molar value.

sample.smiles	pIC50
COc1cc(CNC(=O)C2CCN([C@H](C)c3cccc4ccccc34)CC2)ccn1	6.07
COc1cc(C(=O)NCC2CCN([C@H](C)c3cccc4ccccc34)CC2)ccn1	5.47
C[C@H](c1cccc2ccccc12)N1CCC(C(=O)NCc2ccc(S(N)(=O)=O)cc2)CC1	6.23
C[C@H](c1cccc2ccccc12)N1CCC(C(=O)NCC2CCOCC2)CC1	5.89

* * *

- assay.target: SARS-CoV-2 PLpro (Severe acute respiratory syndrome coronavirus 2, UniProt P0DTD1)
- assay.method.text: biochemical
readout.kind: loss of potency relative to parent 5c (fold)

compound	assay.target	value.unit	test.result
COc1cc(C(=O)NCC2CCN([C@H](C)c3cccc4ccccc34)CC2)ccn1	SARS-CoV-2 PLpro (Severe acute respiratory syndrome coronavirus 2, UniProt P0DTD1)	fold	4
COc1cc(CNC(=O)C2CCN(C(C)c3cccc(-c4ccccc4)c3)CC2)ccn1 (centres unmarked)	SARS-CoV-2 PLpro (Severe acute respiratory syndrome coronavirus 2, UniProt P0DTD1)	fold	20
COc1cc(CNCC2CCN([C@H](C)c3cccc4ccccc34)CC2)ccn1.O=CO	SARS-CoV-2 PLpro (Severe acute respiratory syndrome coronavirus 2, UniProt P0DTD1)	fold	7
COc1cc(CNC(=O)C2CCN(C(C)c3ccc(F)c4ccccc34)CC2)ccn1 (centres unmarked)	SARS-CoV-2 PLpro (Severe acute respiratory syndrome coronavirus 2, UniProt P0DTD1)	fold	3
CNC(=O)C1CCN([C@H](C)c2cccc3ccccc23)CC1	SARS-CoV-2 PLpro (Severe acute respiratory syndrome coronavirus 2, UniProt P0DTD1)	fold	4
